Quick reference for MIC among some molecules
System: Phytophthoracapsici
Test: Antifungal MIC, 96 well microplate, spore suspension
Format: cell-based
Settings: absence of visible growth after 7 days, diluted from 2.5 to 0.0024 mg/ml
attribute_measured: MIC (µg/mL)

> print(dat)
                                   molecule  result.number
1  CCOC(=O)CCCCCCC/C=C\CCCCCCC(C)OC1OC(CO)C(O)C(O)C1OC1OC(COC(C)=O)C(O)C(O)C1O (stereo not shown)            600
2  CCOC(=O)CCCCCCC/C=C\CCCCCCC(C)OC1OC(COC(C)=O)C(O)C(O)C1OC1OC(COC(C)=O)C(O)C(O)C1O (stereo not shown)            600
3  CCCCOC(=O)CCCCCCC/C=C\CCCCCCC(C)OC1OC(CO)C(O)C(O)C1OC1OC(COC(C)=O)C(O)C(O)C1O (stereo not shown)            600
4  COC(=O)CCCCCCC/C=C\CCCCCCC(C)OC1OC(CO)C(O)C(O)C1OC1OC(CO)C(O)C(O)C1O (stereo not shown)           1250
